tested on: ATP; test: switch fluorescence ratio, 500 uM ATP over buffer (Cy3 cluster intensity, sum of 5 cycles each) (fold (ratio)); higher = stronger signal-on switching upon ATP binding; sequences stand for … in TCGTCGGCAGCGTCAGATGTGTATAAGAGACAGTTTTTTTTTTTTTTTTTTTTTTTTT…TC; settings: aptamer strand: ATP DNA aptamer (quencher-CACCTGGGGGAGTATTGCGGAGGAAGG + anchor), 100 nM annealed; ATP concentration: 500 uM;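 further: ATP exposure 15 min at 22 °C before imaging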
Where switch fluorescence ratio equals or exceeds 1, the correct label is MET; where it does not, the label is NOT MET.

>>> assigned_category("CAGGGTAACT")
"MET"
>>> assigned_category("GGAGTTGCGG")
"NOT MET"
>>> assigned_category("GGGGGGTAAA")
"MET"
>>> assigned_category("CTGGTATAGT")
"MET"
>>> assigned_category("GAGGGAATCG")
"NOT MET"
>>> assigned_category("ATTCTGGGGT")
"MET"
>>> assigned_category("CGGAGATTAC")
"MET"
>>> assigned_category("CGGGGATATG")
"NOT MET"

###

system: ATP; experiment: switch fluorescence ratio, 500 uM ATP over buffer (Cy3 cluster intensity, sum of 5 cycles each) (fold (ratio)); higher = stronger signal-on switching upon ATP binding; sequences stand for … in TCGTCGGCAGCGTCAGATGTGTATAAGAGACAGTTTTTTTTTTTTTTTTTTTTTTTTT…TC; conditions: aptamer strand: ATP DNA aptamer (quencher-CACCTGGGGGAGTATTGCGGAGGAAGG + anchor), 100 nM annealed; ATP concentration: 500 uM;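 further: ATP exposure 15 min at 22 °C before imaging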
measured.endpoint: switch fluorescence ratio

>>> observed_measurement("CTGAATGTAG")
1
>>> observed_measurement("GCGATTAAAT")
1.02
>>> observed_measurement("TTAAGAGTTA")
1.01
>>> observed_measurement("CGATTATTTG")
0.979
>>> observed_measurement("AAAGGTTATC")
1.02
>>> observed_measurement("AGGGGGTGTT")
1.02
>>> observed_measurement("GCTTTGGGAA")
1.03
>>> observed_measurement("GCCGGAGCGG")
1.38
>>> observed_measurement("CTCATAGCGG")
1.02
>>> observed_measurement("CTAGAAAGTT")
0.978
>>> observed_measurement("AAGGCAAATA")
1.04
>>> observed_measurement("TAGGGGGGTG")
1.02
>>> observed_measurement("TACTATTTTC")
0.984
>>> observed_measurement("CTGTGTTGTG")
0.998
>>> observed_measurement("GAATGGTTGT")
1.02
>>> observed_measurement("TAAGTTTGCA")
1
>>> observed_measurement("GGATCATGGT")
1.03
>>> observed_measurement("GATGGGGTGT")
1.03
>>> observed_measurement("TACTGAATGG")
0.997
>>> observed_measurement("GGCTAATTGG")
0.99
>>> observed_measurement("TGTTGGGGGC")
1.03
>>> observed_measurement("TAAATACGGG")
1.03
>>> observed_measurement("AGTGGCCGTC")
0.974
>>> observed_measurement("AGGTACTAGG")
1.04
>>> observed_measurement("CGTTGGCGAG")
1.01
>>> observed_measurement("CAATAAGAGC")
1.09
>>> observed_measurement("AGGGATCGGT")
0.979
>>> observed_measurement("TTTGGGATAG")
1.01
>>> observed_measurement("ATAAAATTA")
1.01
>>> observed_measurement("TGTGATTAGG")
0.996
>>> observed_measurement("TGTGTAAGGT")
1.02
>>> observed_measurement("AAGATGCGTA")
0.978
>>> observed_measurement("TATGAAAATC")
0.983

###

test system: ATP; assay: switch fluorescence ratio, 500 uM ATP over buffer (Cy3 cluster intensity, sum of 5 cycles each) (fold (ratio)); higher = stronger signal-on switching upon ATP binding; sequences stand for … in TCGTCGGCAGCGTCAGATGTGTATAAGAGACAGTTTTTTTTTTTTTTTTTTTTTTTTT…TC; settings: aptamer strand: ATP DNA aptamer (quencher-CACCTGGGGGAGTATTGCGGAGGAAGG + anchor), 100 nM annealed; ATP concentration: 500 uM;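 further: ATP exposure 15 min at 22 °C before imaging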
Item-by-item account of switch fluorescence ratio
measured.endpoint: switch fluorescence ratio

>>> observed_measurement("AGGGTAATCA")
0.993
>>> observed_measurement("CTCAGTATTT")
1.01
>>> observed_measurement("AAAGGTGCCA")
1.05
>>> observed_measurement("TCAAAGGGGG")
0.951
>>> observed_measurement("TTTGAAGAGT")
1.04
>>> observed_measurement("TTTTTGTGAA")
0.995
>>> observed_measurement("AAGTGTGGGT")
1
>>> observed_measurement("ACGTAGGTTC")
1.06
>>> observed_measurement("TAGTCAGAGG")
1.01
>>> observed_measurement("CGTGTGAGAC")
1.02
>>> observed_measurement("GGAAGGGGTT")
1.03
>>> observed_measurement("TTGAGGTCGG")
1
>>> observed_measurement("AGAAGTTGGA")
1
>>> observed_measurement("GGCGGTGGCA")
1.01
>>> observed_measurement("TAACCTTAGC")
1.29
>>> observed_measurement("TTTTAATATT")
1.05
>>> observed_measurement("CAGTCTGTGT")
0.992
>>> observed_measurement("GAACTTGGG")
1.01
>>> observed_measurement("GGGACGGGGA")
0.978
>>> observed_measurement("TGGTGGCCCT")
1.01
>>> observed_measurement("TGGCGGGGGG")
0.994
>>> observed_measurement("GTTTAAGGAC")
0.991
>>> observed_measurement("TTGGGCAAAA")
0.985
>>> observed_measurement("ATGTGCTTC")
1.01
>>> observed_measurement("TTCGTATTGT")
0.975
>>> observed_measurement("GCGGGGGTGC")
1.03
>>> observed_measurement("AGGGCGTTTC")
1.01
>>> observed_measurement("GGTATTGGGA")
0.989
>>> observed_measurement("AAAATTTTGT")
1
>>> observed_measurement("TTCATTTGTT")
1.11
>>> observed_measurement("TTATCAGTTG")
1.01
>>> observed_measurement("CTGGTTTTCA")
0.988
>>> observed_measurement("GCTCTTTGGG")
1.06
>>> observed_measurement("ACTGCTGTTT")
0.983
>>> observed_measurement("TTTGGATTCC")
0.998
>>> observed_measurement("AGTCTTAATA")
0.986
>>> observed_measurement("ATAGGCATGC")
1.06
>>> observed_measurement("TGAGTAATTT")
1.01
>>> observed_measurement("ACATGGGGA")
1
>>> observed_measurement("GGGGCCAGGG")
1.04
>>> observed_measurement("ATTCGCAGCC")
1.55
>>> observed_measurement("TTGGGGGTT")
1.03
>>> observed_measurement("GTTGATCAAT")
1.03
>>> observed_measurement("ACATTAACTA")
1.09
>>> observed_measurement("TACTGCGGTC")
0.998
>>> observed_measurement("TCAGGCATTG")
0.979
>>> observed_measurement("GGGTGAAACA")
0.987
>>> observed_measurement("TGGGATCGTC")
0.966
>>> observed_measurement("AGGATTAGCT")
0.999
>>> observed_measurement("TTTAAAGGCA")
0.991
>>> observed_measurement("ATAGGAAAGG")
0.999
>>> observed_measurement("TCCAATATGG")
1.05
>>> observed_measurement("TATTCGGTCG")
0.993
>>> observed_measurement("AATTTCTGGG")
1.06
>>> observed_measurement("CGCAGGGGGA")
1.03
>>> observed_measurement("GCTGCTAAGG")
0.987
>>> observed_measurement("CTGCTTCGAA")
1.06
>>> observed_measurement("AATAAGTATT")
1.02
>>> observed_measurement("CGGATGTGTA")
1
>>> observed_measurement("ATTTGCAGTG")
0.994
>>> observed_measurement("TGAGCTTTTT")
0.993

###

system: ATP; assay: switch fluorescence ratio, 500 uM ATP over buffer (Cy3 cluster intensity, sum of 5 cycles each) (fold (ratio)); higher = stronger signal-on switching upon ATP binding; sequences stand for … in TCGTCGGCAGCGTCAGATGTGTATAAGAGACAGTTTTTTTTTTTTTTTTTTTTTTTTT…TC; conditions: aptamer strand: ATP DNA aptamer (quencher-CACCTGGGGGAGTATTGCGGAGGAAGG + anchor), 100 nM annealed; ATP concentration: 500 uM;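 further: ATP exposure 15 min at 22 °C before imaging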
measured.endpoint: switch fluorescence ratio

>>> observed_measurement("TTTTTGCGCG")
0.997
>>> observed_measurement("GGAGTAGGTA")
1
>>> observed_measurement("TAGTTGGGGC")
1.01
>>> observed_measurement("AGGTTCCACG")
0.996
>>> observed_measurement("AGTCGTGGGC")
0.98
>>> observed_measurement("TTTGGTGGTC")
0.971
>>> observed_measurement("ACGGGGAATG")
1.01
>>> observed_measurement("CGGTTCTCTC")
1.02
>>> observed_measurement("TTTCAGGTTG")
0.982
>>> observed_measurement("ATCGGAGTTC")
0.989
>>> observed_measurement("TGTGCCTGTT")
1.01
>>> observed_measurement("TAACAGGGAG")
1.01
>>> observed_measurement("TTTCAGACAG")
0.992
>>> observed_measurement("ATTGGGAAGA")
1.02
>>> observed_measurement("TTGGCAGTG")
0.993
>>> observed_measurement("GTTATAGGGT")
1.01
>>> observed_measurement("GGTGTACCGG")
1
>>> observed_measurement("AAGTAGCGCT")
1
>>> observed_measurement("GGGACTTTCT")
1.01
>>> observed_measurement("AGGGTCGGCG")
1.01
>>> observed_measurement("ATAAAAAGTT")
0.984
>>> observed_measurement("TAAAAACTGT")
1.02
>>> observed_measurement("GGGGGATCGG")
1.01
>>> observed_measurement("ATACTGTGTT")
1.01
>>> observed_measurement("TCTAATGTGG")
0.983
>>> observed_measurement("GGAATATTGG")
1.02
>>> observed_measurement("GTATAGGGTT")
0.993
>>> observed_measurement("TACAGGCGCT")
0.994
